Hello, the source for this data is patent US12559784B2, in case you need it.

test system: alkaline phosphatase; type: biochemical

{"columns": ["compound", "A2 - Results R1"],
 "data": [
  ["CC(=O)O [Acetic acid]", 0.996],
  ["CCCSSCCC [di-n-Propyl disulfide]", 2.649],
  ["CC(C)(C)c1ccccc1O [2-tert-Butylphenol]", 2.829],
  ["C=CCCC=C [1,5-Hexadiene]", 2.692],
  ["CCCCCCCC(=O)O [Octanoic Acid]", 2.12],
  ["CC(C)=CCC/C(C)=C/CO", 1.876],
  ["CCCCCCCCCCO [1-Decanol]", 2.205],
  ["CC1=CCC(C(C)(C)O)CC1 (stereo not drawn) [alpha-Terpineol]", 2.223],
  ["CCCCCCCN [n-Heptylamine]", 0.170],
  ["CC/C=C\\CC1=C(C)CCC1=O", 2.405],
  ["CCCCCBr [1-Bromopentane]", 2.590],
  ["OCCc1ccccc1 [Phenylethyl alcohol]", 3.342],
  ["CC(C=O)Cc1ccc(C(C)C)cc1 (stereo not shown) [Cyclamen aldehyde]", 2.736],
  ["Cc1ccc(C(C)C)cc1O", 2.462],
  ["C=C(C)[C@@H]1CC=C(CO)CC1 [p-Metha-1,8-dien-7-ol]", 2.757],
  ["O=C(OCc1ccccc1)c1ccccc1O [Benzyl Salicylate]", 3.345]
]}
